biological target: Bcl-xL, Q07817; experiment: peptide SPOT array, c-Myc-tagged receptor at 1 uM or 100 nM, anti-c-Myc-Cy3
Sequence (Q07817 1-209): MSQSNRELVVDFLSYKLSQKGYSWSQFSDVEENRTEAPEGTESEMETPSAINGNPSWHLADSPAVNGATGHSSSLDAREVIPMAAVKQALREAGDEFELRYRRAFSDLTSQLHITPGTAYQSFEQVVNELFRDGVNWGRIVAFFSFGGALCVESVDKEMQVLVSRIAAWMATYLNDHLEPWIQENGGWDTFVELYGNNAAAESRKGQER
measured.parameter: SPOT signal as a fraction of Bim BH3's signal on the same receptor and array

{"columns": ["binder", "assay.result"],
 "data": [
  ["VDSIRPKCQELRHLLDQFSAEIARRR [MCF2L]", 0.6],
  ["LENYYRLADDLSNAARELRVLIDDSQ [MRS2]", 0.03]
]}

I: AIILCNVCGNLCTDLDRFLHLHRRTK [MYCBP2]
II: RGRTRGWVQTDARMSRRTRGPVERAA [C6orf223]
Kindly identify which of I and II has the larger recorded SPOT signal as a fraction of Bim BH3's signal on the same receptor and array value. # answer = label of selected item II
